- Test system: lacZ under control of the tetA promoter (PtetA) in E. coli KM3
- Assay type: cell-based
- measurement_context: Table 4; tribenuron 20 ppm; 48 hrs at 30° C.
quantity: relative β-galactosidase activity, inducer Tb
# print the numeric value only

Some entries whose results are on file:
>>> test_result("L1-38: SU-responsive TetR(B) variant, library L1 hit (protein, Sulfonylurea responsive repressor L1-38) MGSRLDKSKVINSALELLNEVGIEGLTTRKLAQKLGVEQPTLYWHVKNKRALLDALAIEMADRHHTHFCPLEGESWQDFLRNNAKSMRCALLSHRDGAKVWLGTAWTEKQYETTENMLAFLCQQGFSLENALYAWRAVTMFTLGCVLRDQEWQVAKEERETPTTDSMPPLLRQALELGDHQGAEPAFLFGLELIICGLEKQLKCESGS")
15.8
>>> test_result("L1-22: SU-responsive TetR(B) variant, library L1 hit, SEQ ID NO: 7 (protein, Sulfornylurea responsive repressor L1-22) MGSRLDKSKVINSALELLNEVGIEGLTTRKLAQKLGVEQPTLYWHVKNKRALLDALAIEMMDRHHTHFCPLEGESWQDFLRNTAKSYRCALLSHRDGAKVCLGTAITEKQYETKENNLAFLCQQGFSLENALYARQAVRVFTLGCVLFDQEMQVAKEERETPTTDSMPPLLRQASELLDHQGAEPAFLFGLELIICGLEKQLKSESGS")
0.3

Returns the measured relative β-galactosidase activity, inducer Tb for the input molecule. Input: L1-9: SU-responsive TetR(B) variant, library L1 hit (protein, Sulfonylurea responsive repressor L1-09) MGSRLDKSKVINSALELLNEVGIEGLTTRKLAQKLGVEQPTLYWHVKNKRALLDALAIEMLDRHATHFCPLEGESWQDFLRNNAKSMRCALLSHRDGAKVCLGTGFTEKQYETAENSLAFLCQQGFSLENALYAMQAVCIFTLGCVLLDQELQVAKEERETPTTDSMPPLLRQALELKDHQGAEPAFLFGLELIICGLEKQLKCESGS 0.4
